- experiment-summary: Biodistribution in BDL rats with and without excess cold compound
- Assay type: in vivo
- measurement-context: male, Sprague Dawley, rat, bone, iv, total radioactivity, BDL rats, 15 days post-op, 1 hour post-injection, 100-fold excess cold Compound 8; read-out: Activity in Bone, Mean
Numbered stars: 1 amine (or outer) side, 2 acyl side, 3 side chain; on linkers, the order of the positions; unused ones are H or OH. Bridge positions count the residues as written; N and C are the ends. Side chains are listed from the residue outwards. Peptide text beside a SMILES is read from it. * marks the point of attachment. X1 = C/C(=N\O)C(C)(C)NCCC(CCNC(C)(C)/C(C)=N/O)CCN*; Glutaryl = O=C(CCCC(=O)[*:2])[*:1]; X2 = NC(=O)COCC(=O)NCCOCCOCCOCCN*

compound: C/C(=N\O)C(C)(C)NCCC(CCNC(=O)CCCC(=O)NCCCC[C@@H]1NC(=O)CSC[C@@H](C(=O)NCCOCCOCCOCCNC(=O)COCC(N)=O)NC(=O)[C@H](Cc2ccccc2)NC(=O)[C@@H]2CSSC[C@H](NC1=O)C(=O)N[C@@H](CCCNC(=N)N)C(=O)NCC(=O)N[C@@H](CC(=O)O)C(=O)N2)CCNC(C)(C)/C(C)=N/O (stereo partly shown) [Compound 8] ({CH2CO}-K([Glutaryl-X1])CRGDCFC-X2; disulfide 2-6; thioether N-8)
tissue uptake dose at 1 h (%ID): 2.97
